I'd appreciate it if you could supply log10 of IC50 values for the items below.
targetUnderTest: KRas G12V (Homo sapiens, UniProt P01116, G12V)
Sequence (P01116 1-169 isoform P01116-2 G12V): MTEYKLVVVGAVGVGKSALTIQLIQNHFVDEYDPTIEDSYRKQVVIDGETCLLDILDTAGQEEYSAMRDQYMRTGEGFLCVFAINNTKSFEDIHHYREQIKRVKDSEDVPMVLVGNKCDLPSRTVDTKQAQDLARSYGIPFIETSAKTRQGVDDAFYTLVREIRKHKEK
method: biochemical
testConditions: Binding to KRas (IC50 nM) G12V, TR-FRET displacement, KRas G12V
# log10 transformed; quantity=IC50; unit=nM

The reported log10 of IC50 value, KRas G12V (Homo sapiens, UniProt P01116, G12V), for CCc1c(F)ccc2cc(O)cc(N3CCc4c(nc(OC[C@@]56CCCN5C[C@H](F)C6)nc4N4CCCn5nc(CNC(=O)NC)cc5C4)C3)c12 [Example 352] reads 0.30

I looked up CCc1cccc2cccc(N3CCc4c(nc(OCC5(CN(C)C)CC5)nc4NC4CCCc5[nH]ncc54)C3)c12 (stereo not drawn) [Example 542] and its log10 of IC50 for KRas G12V (Homo sapiens, UniProt P01116, G12V) was 3.73

log10 of IC50 value, target or system KRas G12V (Homo sapiens, UniProt P01116, G12V), for C=C1CN2CCCC2(COc2nc3c(c(N4CC5CC(O)CC4C5)n2)CCN(c2cc(O)cc4ccc(F)c(CC)c24)C3)C1 (stereo not drawn) [Example 661] : 1.52

Response field log10 of IC50 (KRas G12V (Homo sapiens, UniProt P01116, G12V)) for item CCc1c(F)ccc2cc(O)cc(N3CCc4c(nc(OC[C@@]56CCCN5C[C@H](F)C6)nc4N4CCCC5(CCCC5)C4)C3)c12 [Example 489] : 2.85

Record CCc1c(F)ccc2cccc(N3CCc4c(nc(OC[C@@]56CCCN5C[C@H](F)C6)nc4N4CCCn5nc(C(=O)N(C)C)cc5C4)C3)c12 [Example 481] / KRas G12V (Homo sapiens, UniProt P01116, G12V), log10 of IC50 recorded as 0.30

Observed log10 of IC50, KRas G12V (Homo sapiens, UniProt P01116, G12V), CCc1c(F)ccc2cc(O)cc(N3CCc4c(nc(OC[C@@]56CCCN5C[C@H](F)C6)nc4N4CCCC5(C4)NC(=O)N(C)C5=O)C3)c12 (stereo partly drawn) [Example 644] : 1.15

The reported log10 of IC50 value, KRas G12V (Homo sapiens, UniProt P01116, G12V), for CCc1cccc2cccc(N3CCc4c(nc(OCC5(CN(C)C)CC5)nc4N(C)Cc4nncn4C)C3)c12 [Example 668] reads 3.31

The compound CCc1c(F)ccc2cc(O)cc(N3CCc4c(nc(OC[C@@]56CCCN5C[C@H](F)C6)nc4N4Cc5cn(C(=O)N(C)C)nc5CC(C)(C)C4)C3)c12 [Example 424] , tested on KRas G12V (Homo sapiens, UniProt P01116, G12V), showed log10 of IC50 of 0.70

###

targetUnderTest: KRas G12R (Homo sapiens, UniProt P01116, G12R)
Sequence (P01116 1-169 isoform P01116-2 G12R): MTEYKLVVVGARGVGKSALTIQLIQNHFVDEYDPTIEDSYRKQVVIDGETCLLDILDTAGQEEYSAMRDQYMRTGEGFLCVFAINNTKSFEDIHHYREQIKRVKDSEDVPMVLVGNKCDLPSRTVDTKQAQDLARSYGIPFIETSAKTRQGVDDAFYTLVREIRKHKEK
method: biochemical
testConditions: Binding to KRas (IC50 nM) G12R, TR-FRET displacement, KRas G12R
Response field label: string, one of Criterion met (IC50 strictly below 5 nM) or Criterion not met.

### Prompt Does this compound meet the criterion IC50 < 5 nM? CCc1c(F)ccc2cc(O)cc(N3CCc4c(nc(OC[C@@]56CCCN5C[C@H](F)C6)nc4N4CCCn5nc(C(=O)NC6CCC6)cc5C4)C3)c12
### Response Criterion met

### Prompt is_below(IC50, 5 nM) for CCc1c(F)ccc2cc(O)cc(N3CCc4c(nc(OC[C@@]56CCCN5C[C@H](F)C6)nc4N4CCCn5nc(CNC(C)=O)cc5C4)C3)c12 ?
### Response Criterion met

### Prompt Dear reviewer, please state whether CCc1c(F)ccc2cc(O)cc(N3CCc4c(nc(OC[C@@]56CCCN5C[C@H](F)C6)nc4N4CCCCn5nc(C(=O)N(C)C)cc5C4)C3)c12 has IC50 strictly beneath 5 nM.
### Response Criterion met

### Prompt Record CCc1c(F)ccc2cc(O)cc(N3CCc4c(nc(OC[C@@]56CCCN5C[C@H](F)C6)nc4N4CCCn5nc(C(=O)N6C[C@@H]7C[C@H](C6)[C@H](O)C7)cc5C4)C3)c12 : is its IC50 strictly below 5 nM?
### Response Criterion met

### Prompt Criterion: IC50 strictly below 5 nM. Is it met by CCc1c(F)ccc2cc(O)cc(N3CCc4c(nc(OC[C@@]56CCCN5C[C@H](F)C6)nc4N4CCCn5nc(C(=O)N6CCC7CC6CN7)cc5C4)C3)c12 (stereo partly drawn) ?
### Response Criterion met

### Prompt For CCc1c(F)ccc2cc(O)cc(N3CCc4c(nc(OC[C@@]56CCCN5C[C@H](F)C6)nc4N4CCCn5nc(C(=O)N6CC[C@@H]7CC[C@H]6C7)cc5C4)C3)c12 , is the recorded IC50 below the cut-off of 5 nM?
### Response Criterion met

### Prompt For CCc1c(F)ccc2cc(O)cc(N3CCc4c(nc(OC[C@@]56CCCN5C[C@H](F)C6)nc4N4CCCCC(COC(C)C(=O)N(C)C)C4)C3)c12 (stereo partly drawn) , is the recorded IC50 below the cut-off of 5 nM?
### Response Criterion not met

### Prompt Input Cc1cc2[nH]ncc2c(N2CCc3c(nc(OCC45CCCN4CCC5)nc3N3CCC[C@]4(C3)NC(=O)NC4=O)C2)c1C ; condition: IC50 strictly below 5 nM. Does it hold?
### Response Criterion met

### Prompt Strictly below 5 nM: is that where IC50 of CCc1c(F)ccc2cc(O)cc(N3CCc4c(nc(OC[C@@]56CCCN5C[C@H](F)C6)nc4N4CCCn5nc(N(C)C(C)=O)cc5C4)C3)c12 sits?
### Response Criterion not met

### Prompt Is 5 nM strictly greater than the compound's reported IC50? compound: CCc1c(F)ccc2cc(O)cc(N3CCc4c(nc(OC[C@@]56CCCN5C[C@H](F)C6)nc4N4CCCn5nc(CNC(=O)NC)cc5C4)C3)c12
### Response Criterion met

### Prompt For this compound, is IC50 lower than 5 nM? C[C@@H]1C[C@@H]1c1c(Cl)cc2[nH]ncc2c1N1CCc2c(nc(OCC34CCCN3CCC4)nc2N2CCC[C@]3(C2)NC(=O)NC3=O)C1
### Response Criterion met

###

targetUnderTest: KRas WT (Homo sapiens, UniProt P01116)
Sequence (P01116 1-169 isoform P01116-2): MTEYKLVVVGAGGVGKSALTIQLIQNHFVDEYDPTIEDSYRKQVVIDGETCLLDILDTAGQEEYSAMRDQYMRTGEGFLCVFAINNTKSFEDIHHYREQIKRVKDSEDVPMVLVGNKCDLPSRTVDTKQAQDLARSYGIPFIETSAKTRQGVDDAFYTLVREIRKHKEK
method: KRas binding assay (TR-FRET displacement), KRas WT
testConditions: single point, 10 nM compound
endpoint: inhibition at 0.01 µM (%)
Write the answer as a number in %, unit excluded.

Noted for CCc1c(F)ccc2cc(O)cc(N3CCc4c(nc(OC[C@@]56CCCN5C[C@H](F)C6)nc4N4CCCn5nc(C(=O)NC)c(C)c5C4)C3)c12 : its inhibition at 0.01 µM reads 93

Form: compound = CCc1c(F)ccc2cc(O)cc(N3CCc4c(nc(OC[C@@]56CCCN5C[C@H](F)C6)nc4N4CCCn5nc(CN(C)C(=O)N(C)C)cc5C4)C3)c12 ; inhibition at 0.01 µM = 38

Measured inhibition at 0.01 µM, CCc1c(F)ccc2cc(O)cc(N3CCc4c(nc(OC[C@@]56CCCN5C[C@H](F)C6)nc4N4CCCn5nc(C(=O)NC6CC6)cc5C4)C3)c12 : 94

###

targetUnderTest: KRas G12D (Homo sapiens, UniProt P01116, G12D)
Sequence (P01116 1-169 isoform P01116-2 G12D): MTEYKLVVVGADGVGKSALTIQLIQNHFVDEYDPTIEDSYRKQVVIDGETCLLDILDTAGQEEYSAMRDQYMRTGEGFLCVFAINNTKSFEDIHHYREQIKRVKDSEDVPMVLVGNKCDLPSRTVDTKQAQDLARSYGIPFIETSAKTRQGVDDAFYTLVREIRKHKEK
method: biochemical
testConditions: Binding to KRas (IC50 nM) G12D, TR-FRET displacement, KRas G12D
endpoint: log10 IC50 (log10 of the value in nM)
Short version: log10 scale, IC50, nM.

Sure, the documented log10 IC50 for CCc1c(F)ccc2cc(O)cc(N3CCc4c(nc(OC[C@@]56CCCN5C[C@H](F)C6)nc4N4CCCc5nn(C6CC6)cc5C4)C3)c12 is 1.76

Kindly note the recorded log10 IC50 for Cc1cc2[nH]ncc2c(N2CCc3c(nc(OCC45CCCN4CCC5)nc3N3CCCn4nc(C(=O)N(C)C)cc4C3)C2)c1C , which is 1.04

CCc1cccc2cccc(N3CCc4c(nc(OCC5(CN(C)C)CC5)nc4N4CCOCC(CO)C4)C3)c12 (stereo not drawn) yielded log10 IC50 of 2.29

The value of log10 IC50 measured for the compound Cc1cc2[nH]ncc2c(N2CCc3c(nc(OCC45CCCN4CCC5)nc3N3CCCC4(CC(O)C4)C3)C2)c1C (single isomer, unassigned; isomer 1) turned out to be 2.78

Entry under test: CCc1c(F)ccc2cc(O)cc(N3CCc4c(nc(OC[C@@]56CCCN5C[C@H](F)C6)nc4N4CCCn5nc(N(C(C)C)S(C)(=O)=O)cc5C4)C3)c12 . Its log10 IC50 was 2.75

What the record says about CCc1c(F)ccc2cc(O)cc(N3CCc4c(nc(OCC56CCCN5C/C(=C\F)C6)nc4N4C[C@@H]5C[C@H](C4)[C@H](O)C5)C3)c12 (stereo partly drawn) : log10 IC50 is 0.60

# log10 IC50 of CCc1cccc2cccc(N3CCc4c(nc(OCC5(CN(C)C)CC5)nc4N4CCCC(c5nccn5C)C4)C3)c12 (stereo not drawn) = 4.21

Reported log10 IC50 ( CCc1c(F)ccc2cc(O)cc(N3CCc4c(nc(OC[C@@]56CCCN5C[C@H](F)C6)nc4N4CCCc5n[nH]cc5C4)C3)c12 ) = 1.15

Summary for this compound, CCc1cccc2cccc(N3CCc4c(nc(OCC5(CN(C)C)CC5)nc4N4Cc5cn[nH]c5CC(C)C4)C3)c12 (stereo not drawn) : log10 IC50 is 3.87

Value of measured log10 IC50 for the entry CCc1c(F)ccc2cc(O)cc(N3CCc4c(nc(OC[C@@]56CCCN5C[C@H](F)C6)nc4N4CCCCn5nc(N)cc5C4)C3)c12 : 0.60

log10 IC50 reading for O=S1(=O)CCC2(CCCN(c3nc(OC[C@@]45CCCN4C[C@H](F)C5)nc4c3CCN(c3cc(O)cc5cccc(Cl)c35)C4)C2)N1 (stereo partly drawn) : 0.48

// CCc1cccc2cccc(N3CCc4c(nc(OCC5(CN(C)C)CC5)nc4N4CCCn5nc(CO)cc5C4)C3)c12 : log10 IC50 value = 2.12

Form field log10 IC50, entry CCc1cccc2cccc(N3CCc4c(nc(OCC5(CN(C)C)CC5)nc4NCC4(NC(=O)OC(C)(C)C)CCOC4)C3)c12 (stereo not drawn) : 4.98

Looking up CCc1cccc2cccc(N3CCc4c(nc(OCC5(CN(C)C)CC5)nc4N4CCCC(c5ccon5)C4)C3)c12 (stereo not drawn) , I found its log10 IC50 recorded as 3.58

Data point: CCc1c(F)ccc2cc(O)cc(N3CCc4c(nc(OC[C@@]56CCCN5C[C@H](F)C6)nc4N4CCCn5nc(CC(=O)N(C)C)cc5C4)C3)c12 ; log10 IC50 = 0.70

Briefly, log10 IC50 measured for CCc1c(F)ccc2cc(O)cc(N3CCc4c(nc(OC[C@@]56CCCN5C[C@H](F)C6)nc4N4CCCC5(CCNC5=O)C4)C3)c12 (stereo partly drawn) : 1.77

Memo: CCCCCCCCCCNC(=O)c1cc2n(n1)CCCN(c1nc(OC[C@@]34CCCN3C[C@H](F)C4)nc3c1CCN(c1cc(O)cc4ccc(F)c(CC)c14)C3)C2 , reported log10 IC50: 2.17
